The measurements presented in this section are drawn from the NIST ThermoML archive (doi:10.1016/j.jct.2009.07.002).

- measurement.description: isobaric coefficient of expansion
- stated.conditions: 308.15 K; 5000 kPa; Liquid; DSC with Pressure Shift
quantity.kind: isobaric coefficient of expansion

CCCCCCCCCO [nonan-1-ol] = 0.000829 1/K
CCC(O)CC [3-pentanol] = 0.00101 1/K
CCCCCCCCO [octan-1-ol] = 0.00084 1/K
CCCCCCCO [heptan-1-ol] = 0.000854 1/K
CCCC(C)O (stereo unspecified) [pentan-2-ol] = 0.00101 1/K
CCCCCCCCCCO [decan-1-ol] = 0.000822 1/K
CCCCCN [1-pentanamine] = 0.00114 1/K
CCO [ethanol] = 0.00109 1/K
CCCCCO [pentan-1-ol] = 0.000908 1/K
CCCCCCO [hexan-1-ol] = 0.000875 1/K
CCCO [propan-1-ol] = 0.001 1/K

----------
As shown below, each of these molecules has a reported isobaric coefficient of expansion value.
- measurement.description: isobaric coefficient of expansion
- stated.conditions: 308.15 K; 40000 kPa; Liquid; DSC with Pressure Shift
quantity.kind: isobaric coefficient of expansion

CCCCCO [pentan-1-ol] = 0.000763 1/K
CCCCCN [1-pentanamine] = 0.000968 1/K
CCCCCCCO [heptan-1-ol] = 0.00073 1/K
CCO [ethanol] = 0.000903 1/K
CCC(O)CC [3-pentanol] = 0.000888 1/K
CCCC(C)O (stereo unspecified) [pentan-2-ol] = 0.00085 1/K
CCCCCCCCCO [nonan-1-ol] = 0.00071 1/K
CCCCCCCCCCO [decan-1-ol] = 0.000706 1/K
CCCCCCCCO [octan-1-ol] = 0.000716 1/K
CCCCCCO [hexan-1-ol] = 0.000747 1/K
CCCO [propan-1-ol] = 0.000844 1/K

----------
- measurement.description: isobaric coefficient of expansion
- stated.conditions: 288.15 K; 20000 kPa; Liquid; DSC with Pressure Shift
As shown below, each of these compounds has a reported isobaric coefficient of expansion value.
quantity.kind: isobaric coefficient of expansion

CCCC(C)O (stereo not given) [pentan-2-ol] = 0.000857 1/K
CCCCCCO [hexan-1-ol] = 0.000786 1/K
CCCCCN [1-pentanamine] = 0.00104 1/K
CCCCCCCO [heptan-1-ol] = 0.000769 1/K
CCC(O)CC [3-pentanol] = 0.000882 1/K
CCCCCCCCO [octan-1-ol] = 0.000761 1/K
CCCO [propan-1-ol] = 0.000884 1/K
CCO [ethanol] = 0.000956 1/K
CCCCCO [pentan-1-ol] = 0.000813 1/K
CCCCCCCCCO [nonan-1-ol] = 0.000759 1/K

----------
As shown below, each of these molecules has a reported isobaric coefficient of expansion value.
- measurement.description: isobaric coefficient of expansion
- stated.conditions: 278.15 K; 40000 kPa; Liquid; DSC with Pressure Shift
quantity.kind: isobaric coefficient of expansion

CCCCCCCCCO = 0.000704 1/K
CCCCCO = 0.000742 1/K
CCCCCCCO = 0.000697 1/K
CCC(O)CC = 0.000799 1/K
CCCCCCCCO = 0.000704 1/K
CCCO = 0.000803 1/K
CCO = 0.000882 1/K
CCCCCCO = 0.000723 1/K
CCCC(C)O (stereo not given) = 0.000756 1/K
CCCCCN = 0.000954 1/K

----------
As shown below, each of these compounds has a reported isobaric coefficient of expansion value.
- measurement.description: isobaric coefficient of expansion
- stated.conditions: 298.15 K; 20000 kPa; Liquid; DSC with Pressure Shift
quantity.kind: isobaric coefficient of expansion

CCC(O)CC [3-pentanol] = 0.000917 1/K
CCCCCCO [hexan-1-ol] = 0.000796 1/K
CCCCCCCO [heptan-1-ol] = 0.000779 1/K

----------
- measurement.description: isobaric coefficient of expansion
- stated.conditions: 278.15 K; 45000 kPa; Liquid; DSC with Pressure Shift
As shown below, each of these compounds has a reported isobaric coefficient of expansion value.
quantity.kind: isobaric coefficient of expansion

CCC(O)CC [3-pentanol] = 0.000766 1/K
CCCO [propan-1-ol] = 0.00079 1/K
CCCCCCO [hexan-1-ol] = 0.000716 1/K
CCCCCCCCO [octan-1-ol] = 0.00069 1/K
CCCC(C)O (stereo not given) [pentan-2-ol] = 0.000745 1/K
CCCCCCCCCO [nonan-1-ol] = 0.000693 1/K
CCCCCCCO [heptan-1-ol] = 0.00069 1/K
CCCCCN [1-pentanamine] = 0.000938 1/K
CCO [ethanol] = 0.000863 1/K
CCCCCO [pentan-1-ol] = 0.000735 1/K

----------
As shown below, each of these molecules has a reported isobaric coefficient of expansion value.
- measurement.description: isobaric coefficient of expansion
- stated.conditions: 338.15 K; 20000 kPa; Liquid; DSC with Pressure Shift
quantity.kind: isobaric coefficient of expansion

CCCC(C)O (stereo unspecified) [pentan-2-ol] = 0.00105 1/K
CCCO [propan-1-ol] = 0.00101 1/K
CCC(O)CC [3-pentanol] = 0.00107 1/K
CCCCCCO [hexan-1-ol] = 0.00088 1/K
CCCCCCCCCO [nonan-1-ol] = 0.000807 1/K
CCCCCCCCCCO [decan-1-ol] = 0.000799 1/K
CCCCCN [1-pentanamine] = 0.00108 1/K
CCO [ethanol] = 0.00108 1/K
CCCCCCCO [heptan-1-ol] = 0.000851 1/K
CCCCCCCCO [octan-1-ol] = 0.000822 1/K
CCCCCO [pentan-1-ol] = 0.000899 1/K

----------
As shown below, each of these compounds has a reported isobaric coefficient of expansion value.
- measurement.description: isobaric coefficient of expansion
- stated.conditions: 348.15 K; 15000 kPa; Liquid; DSC with Pressure Shift
quantity.kind: isobaric coefficient of expansion

CCCO [propan-1-ol] = 0.00108 1/K
CCCC(C)O (stereo not drawn) [pentan-2-ol] = 0.00111 1/K
CCCCCO [pentan-1-ol] = 0.00096 1/K
CCC(O)CC [3-pentanol] = 0.00113 1/K
CCCCCCCO [heptan-1-ol] = 0.000899 1/K
CCO [ethanol] = 0.00116 1/K
CCCCCN [1-pentanamine] = 0.00113 1/K
CCCCCCO [hexan-1-ol] = 0.000929 1/K

----------
As shown below, each of these molecules has a reported isobaric coefficient of expansion value.
- measurement.description: isobaric coefficient of expansion
- stated.conditions: 338.15 K; 5000 kPa; Liquid; DSC with Pressure Shift
quantity.kind: isobaric coefficient of expansion

CCCCCO = 0.001 1/K
CCCCCCCO = 0.000928 1/K
CCCO = 0.00111 1/K

----------
- measurement.description: isobaric coefficient of expansion
- stated.conditions: 328.15 K; 50000 kPa; Liquid; DSC with Pressure Shift
quantity.kind: isobaric coefficient of expansion

CCCCCO = 0.000755 1/K
CCC(O)CC = 0.000907 1/K
CCO = 0.000894 1/K
CCCCCCCCCCO = 0.000691 1/K
CCCC(C)O (stereo unspecified) = 0.000872 1/K
CCCCCN = 0.000931 1/K
CCCO = 0.000838 1/K
CCCCCCCCCO = 0.0007 1/K
CCCCCCCCO = 0.000705 1/K
CCCCCCCO = 0.000726 1/K
CCCCCCO = 0.000745 1/K

----------
- measurement.description: isobaric coefficient of expansion
- stated.conditions: 328.15 K; 45000 kPa; Liquid; DSC with Pressure Shift
quantity.kind: isobaric coefficient of expansion

CCCCCN [1-pentanamine] = 0.000949 1/K
CCCO [propan-1-ol] = 0.000858 1/K
CCCCCCO [hexan-1-ol] = 0.000759 1/K
CCCC(C)O (stereo unspecified) [pentan-2-ol] = 0.000889 1/K
CCO [ethanol] = 0.000912 1/K
CCCCCCCCCCO [decan-1-ol] = 0.000704 1/K
CCCCCO [pentan-1-ol] = 0.000772 1/K
CCC(O)CC [3-pentanol] = 0.00093 1/K
CCCCCCCO [heptan-1-ol] = 0.00074 1/K
CCCCCCCCCO [nonan-1-ol] = 0.000715 1/K
CCCCCCCCO [octan-1-ol] = 0.000719 1/K

----------
- measurement.description: isobaric coefficient of expansion
- stated.conditions: 318.15 K; 15000 kPa; Liquid; DSC with Pressure Shift
As shown below, each of these compounds has a reported isobaric coefficient of expansion value.
quantity.kind: isobaric coefficient of expansion

CCC(O)CC [3-pentanol] = 0.00101 1/K
CCCO [propan-1-ol] = 0.000976 1/K
CCCCCCCO [heptan-1-ol] = 0.000833 1/K
CCCCCCO [hexan-1-ol] = 0.000854 1/K
CCCC(C)O (stereo unspecified) [pentan-2-ol] = 0.001 1/K
CCCCCN [1-pentanamine] = 0.00109 1/K
CCCCCCCCCO [nonan-1-ol] = 0.000801 1/K
CCO [ethanol] = 0.00105 1/K
CCCCCCCCO [octan-1-ol] = 0.000815 1/K
CCCCCCCCCCO [decan-1-ol] = 0.000795 1/K
CCCCCO [pentan-1-ol] = 0.000879 1/K
